This section presents sequences with their documented phosphorylation enrichment values.
system_under_test: EPHB1 (UniProt P54762)
Sequence (P54762 whole entry, looked up): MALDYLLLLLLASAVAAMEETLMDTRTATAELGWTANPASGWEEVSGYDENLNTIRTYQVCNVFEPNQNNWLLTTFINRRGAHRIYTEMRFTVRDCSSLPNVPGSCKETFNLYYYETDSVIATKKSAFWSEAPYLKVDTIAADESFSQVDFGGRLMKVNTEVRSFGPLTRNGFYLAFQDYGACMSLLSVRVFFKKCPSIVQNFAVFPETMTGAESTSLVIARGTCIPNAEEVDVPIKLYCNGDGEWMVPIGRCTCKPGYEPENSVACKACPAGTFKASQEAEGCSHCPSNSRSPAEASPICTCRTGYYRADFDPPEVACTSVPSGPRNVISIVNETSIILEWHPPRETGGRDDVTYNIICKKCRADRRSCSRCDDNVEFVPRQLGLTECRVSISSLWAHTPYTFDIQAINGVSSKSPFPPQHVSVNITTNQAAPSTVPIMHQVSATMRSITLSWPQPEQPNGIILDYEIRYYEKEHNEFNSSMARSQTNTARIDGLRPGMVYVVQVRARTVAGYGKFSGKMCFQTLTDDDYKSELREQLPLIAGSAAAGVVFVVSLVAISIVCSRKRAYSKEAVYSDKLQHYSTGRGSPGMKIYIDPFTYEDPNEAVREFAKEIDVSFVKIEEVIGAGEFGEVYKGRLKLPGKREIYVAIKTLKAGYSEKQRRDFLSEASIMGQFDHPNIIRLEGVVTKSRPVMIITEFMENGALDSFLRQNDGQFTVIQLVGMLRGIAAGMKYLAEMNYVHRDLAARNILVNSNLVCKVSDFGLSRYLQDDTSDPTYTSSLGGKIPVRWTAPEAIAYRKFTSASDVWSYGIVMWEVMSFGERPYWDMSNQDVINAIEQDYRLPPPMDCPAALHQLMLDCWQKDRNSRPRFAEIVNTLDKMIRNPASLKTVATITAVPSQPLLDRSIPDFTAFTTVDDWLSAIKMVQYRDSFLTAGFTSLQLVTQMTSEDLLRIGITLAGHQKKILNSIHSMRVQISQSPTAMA
protocol: phosphorylation enrichment, bacterial display (enrichment ratio); higher = better substrate or ligand; peptides without Tyr show the background;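 also: 11-residue human phosphosite peptides and single-mutation variants displayed on the E. coli surface, counted by deep sequencing, each peptide's frequency after selection divided by its frequency in the unselected input library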;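 also: frequency after pTyr selection over input frequency; kinase dosed for 20-30% of maximal phosphorylation in three min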
Form field (numeric): enter value without unit.

Example cases with answers are listed next.
EEQKKYFNAMK [SCN5A_Y1494_YF] ... 0.459
SIFKDYFRFNF [PLA2G2D_Y85_YF] ... 0.523
CFTRKYTLPPG [HSPB1_Y142] ... 0.546
ANFTEYVATSW [CDKL5_Y171_R175S_YF] ... 0.841
YNNYGYGSDGF [HNRNPH3_Y161_N163S] ... 2.96

If you can, please state the reported phosphorylation enrichment value of RRNTFYASIAK [ACADM_Y353_YF] .
0.453

If you can, please state the reported phosphorylation enrichment value of NPQKSYFIHLY [WAS_Y83_R86H] .
0.588

If you can, please state the reported phosphorylation enrichment value of IQVDAYFSPIH [ADSL_Y432] .
0.738

If you can, please state the reported phosphorylation enrichment value of LSAPEYGPKLK [TBC1D14_Y46] .
0.539

If you can, please state the reported phosphorylation enrichment value of SHPSSYTTHPQ [NIPBL_Y195] .
0.362

If you can, please state the reported phosphorylation enrichment value of LGQRIYQYIRS [DYRK1B_Y271_Q275R] .
11.1

If you can, please state the reported phosphorylation enrichment value of EHVMPYAANKN [GRIN2A_Y1431] .
0.392

If you can, please state the reported phosphorylation enrichment value of HVEAVYIDIAD [PITPNA_Y140] .
2.52
